molecular target: recombinant human IL-13 (human, UniProt P35225 35-146); experiment: cell-based or functional assay
Sequence (P35225 35-146 limits assumed): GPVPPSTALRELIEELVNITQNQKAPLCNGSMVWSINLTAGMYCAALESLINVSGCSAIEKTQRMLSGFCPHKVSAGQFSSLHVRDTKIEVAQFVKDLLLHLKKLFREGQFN
In this section, each of the binders is paired with its reported HEK-IL-13 [nM] (IC50, STAT6 reporter).
// units = nM; emit number, no label

Sample records with HEK-IL-13 [nM] (IC50, STAT6 reporter):
BINDER	MEASURED_RESULT
BDG38.126 (antibody, V domains shown, IgG1) VH: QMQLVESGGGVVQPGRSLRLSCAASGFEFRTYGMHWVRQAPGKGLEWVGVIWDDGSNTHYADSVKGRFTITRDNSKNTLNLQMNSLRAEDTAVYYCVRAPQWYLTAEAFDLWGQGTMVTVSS VL: SYILTQPPSVSVAPGQTARITCGGNLIGAKLVHWYQQKPGQAPVLVIYDDSDRPSRIPERFSGSNIGNTATLTIERVEEGDEADYYCQVWDYSSDHMVFGGGTKLTVL	0.079
BDG38.094 (antibody, V domains shown, IgG1) VH: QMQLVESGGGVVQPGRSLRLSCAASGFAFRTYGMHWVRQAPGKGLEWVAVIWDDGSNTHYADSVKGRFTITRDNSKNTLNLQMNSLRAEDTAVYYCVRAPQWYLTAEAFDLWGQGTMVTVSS VL: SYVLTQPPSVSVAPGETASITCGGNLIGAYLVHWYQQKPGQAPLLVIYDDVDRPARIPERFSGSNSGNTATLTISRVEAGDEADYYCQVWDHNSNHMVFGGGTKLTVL	0.0487
BDG38.111 (antibody, V domains shown) VH: QMQLVESGGGVVQPGRSLTLSCAASGFEFRTYGMHWVRQAPGKGLEWVGVIWDDGSATHYADSVKGRFTITRDNSKNTLNLQMNSLRVEDTAVYYCVRAPQWYLTAEAFDLWGQGTMVTVSS VL: SYVLTQPPSVSVAPGETATITCGGALIGARLVHWYQQKPGQAPVLVVYDDSDRPSRIPERFSGSNIGNTATLTISRVEAGDEADYYCQVWDYYANSYVFGGGTKLTVL	0.0545
BDG38.114 (antibody, V domains shown) VH: QMQLVESGGGVVQPGRSLTLSCAASGFEFRTYGMHWVRQAPGKGLEWVGVIWYDGSNTHYADSVKGRFTITRDNSKNTLNLQMNSLRVEDTAVYYCVRAPQWYLTAEAFDLWGQGTMVTVSS VL: SYILTQPPSVSVAPGQTATITCGGNLIGARLVHWYQQKPGQAPVLVIYDDSDRPSRIPERFSGSNIGNTATLTIEDVEEGDEADYYCQVWDYSANSYVFGGGTKLTVL	0.0989

Next binder, please.
For this binder ( BDG38.085 (antibody, V domains shown) VH: QMQLVESGGGVVQPGRSLTLSCAASGFEFRTYGMHWVRQAPGKGLEWVGVIWYDGSNTHYADSVKGRFTITRDNSKNTLNLQMNSLRVEDTAVYYCVRAPQWYLTAEAFDLWGQGTMVTVSS VL: SYVLTQPPSVSVAPGETATITCGGNLIGARLVHWYQQKPGQAPVLVIYDDSDRPSRIPERFSGSNIGNTATLTIERVEAGDEADYYCQVWDYSSNSYVFGGGTKLTVL ), measured HEK-IL-13 [nM] (IC50, STAT6 reporter) is 0.0236
